Where these numbers come from: paper PMC4336329

# TARGET SYSTEM: human ether-à-go-go-related gene (hERG) potassium channel (human);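 note: peak tail current of the secondary pulse compared with the same well before compound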
# Sequence (Q12809 whole entry, looked up): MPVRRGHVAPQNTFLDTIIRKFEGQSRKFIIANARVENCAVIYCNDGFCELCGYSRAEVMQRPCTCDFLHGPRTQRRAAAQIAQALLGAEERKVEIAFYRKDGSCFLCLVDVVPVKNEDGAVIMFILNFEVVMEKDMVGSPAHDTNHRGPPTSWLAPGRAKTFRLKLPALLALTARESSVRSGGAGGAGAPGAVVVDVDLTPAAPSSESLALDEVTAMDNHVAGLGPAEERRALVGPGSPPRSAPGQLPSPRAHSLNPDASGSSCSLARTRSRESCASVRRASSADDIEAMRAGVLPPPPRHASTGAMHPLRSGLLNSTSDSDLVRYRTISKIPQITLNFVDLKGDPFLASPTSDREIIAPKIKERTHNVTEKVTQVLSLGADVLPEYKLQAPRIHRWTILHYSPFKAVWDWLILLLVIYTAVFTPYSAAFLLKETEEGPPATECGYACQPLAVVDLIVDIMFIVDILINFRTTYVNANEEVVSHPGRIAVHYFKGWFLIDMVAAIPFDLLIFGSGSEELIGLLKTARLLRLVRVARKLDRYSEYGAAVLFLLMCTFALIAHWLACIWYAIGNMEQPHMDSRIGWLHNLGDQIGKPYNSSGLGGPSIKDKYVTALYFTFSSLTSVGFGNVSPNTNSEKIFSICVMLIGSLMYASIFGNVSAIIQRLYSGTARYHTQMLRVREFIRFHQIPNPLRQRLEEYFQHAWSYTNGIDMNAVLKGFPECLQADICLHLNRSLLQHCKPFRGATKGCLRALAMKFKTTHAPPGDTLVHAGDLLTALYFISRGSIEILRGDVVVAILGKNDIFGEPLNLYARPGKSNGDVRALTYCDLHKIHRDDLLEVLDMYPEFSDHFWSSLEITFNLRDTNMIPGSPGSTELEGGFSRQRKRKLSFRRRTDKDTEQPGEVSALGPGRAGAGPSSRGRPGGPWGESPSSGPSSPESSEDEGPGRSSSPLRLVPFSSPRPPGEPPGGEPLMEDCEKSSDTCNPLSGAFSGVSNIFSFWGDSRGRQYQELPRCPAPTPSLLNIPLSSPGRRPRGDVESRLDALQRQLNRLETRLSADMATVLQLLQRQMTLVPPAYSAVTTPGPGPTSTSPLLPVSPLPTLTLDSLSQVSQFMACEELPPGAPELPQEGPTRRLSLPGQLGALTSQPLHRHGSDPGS
# PROCEDURE SUMMARY: primary screen, population patch clamp on CHO cells stably expressing hERG; higher = less effect of the substance
Among all 310,000 compounds or so, about 14,000 (4.5%) showed an effect of 50% or more. The effect is printed as a negative number. The sample holds strong results, similar compounds and a random draw of the others, so the mix is not that of the screen.
ASSAY ENDPOINT: hERG current change (%, negative = inhibition) at 10uM (%)

>>> readout_value("Cc1cc2nnc(SCC(=O)Nc3cccc(S(=O)(=O)N4CCOCC4)c3)n2c2ccccc12")
-14.4
>>> readout_value("Cc1cc2nnc(SCC(=O)Nc3cc(S(=O)(=O)N4CCOCC4)ccc3Cl)n2c2ccccc12")
-20.5
>>> readout_value("COc1ccc(Br)cc1CN(C)C(=O)Cc1ccc(S(=O)(=O)N2CCOCC2)s1")
-70.4
>>> readout_value("O=C(CN1C(=O)c2ccccc2C1=O)NCC(=O)OCC(=O)c1ccc(Cl)cc1")
16.2

* * *

# TARGET SYSTEM: human ether-à-go-go-related gene (hERG) potassium channel (human);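 note: peak tail current of the secondary pulse compared with the same well before compound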
# PROCEDURE SUMMARY: primary screen, population patch clamp on CHO cells stably expressing hERG; higher = less effect of the substance
The whole screen tested about 310,000 compounds, of which about 14,000 (4.5%) showed an effect of 50% or more. Effects have a minus sign here. The list comes from a sample in which strong results are over-represented; it also holds close analogues and randomly drawn compounds.
Reported hERG current change (%, negative = inhibition) at 10uM values follow for various compounds
ASSAY ENDPOINT: hERG current change (%, negative = inhibition) at 10uM (%)

>>> readout_value("COc1ccccc1C(=O)NCCC(=O)N(C)CC(=O)Nc1ccc(C)cc1")
7.91
>>> readout_value("CC(C)Oc1cccc(NC(=O)c2cnccc2C(F)(F)F)c1")
-0.311
>>> readout_value("CC(C)N1CCC(N2CCN(Cc3cnc(-c4ccccc4)s3)CC2CCO)CC1 (stereo not shown)")
-15.6
>>> readout_value("CC(C)(O)C#Cc1ccc(CN2CCN(CCc3ccccc3)C(CCO)C2)s1 (stereo not shown)")
-30.7
>>> readout_value("Cc1ccc(C(=O)NCCCN2CCN(CCCNC(=O)c3ccc(C)cc3)CC2)cc1")
-67.5
>>> readout_value("Cc1ccc(C(=O)NCCN2CCCC2)cc1.Cl")
-5.44
>>> readout_value("CC(C)c1ccc(C(=O)NCCCN2CCOCC2)cc1")
-5.2
>>> readout_value("CN1CCN(CCCNC(=O)c2ccc(NC(=O)C3=CSCCO3)cc2)CC1")
11.5
>>> readout_value("Cc1ncc(CN2CCN(C3CCCC3)C(CCO)C2)s1 (stereo not shown)")
27.6
>>> readout_value("CCOc1ccc(CN2CCN(Cc3cnc(N4CCOCC4)s3)CC2CCO)cc1 (stereo not shown)")
-39.8

* * *

# TARGET SYSTEM: human ether-à-go-go-related gene (hERG) potassium channel (human);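 note: peak tail current of the secondary pulse compared with the same well before compound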
# PROCEDURE SUMMARY: primary screen, population patch clamp on CHO cells stably expressing hERG; higher = less effect of the substance
Hit rate of the full screen: of about 310,000 compounds, about 14,000 (4.5%) showed an effect of 50% or more. Effects have a minus sign here. Many of the other results were omitted from the sample, so strong results are more common in it than they were.
Reported hERG current change (%, negative = inhibition) at 10uM values follow for various molecules
ASSAY ENDPOINT: hERG current change (%, negative = inhibition) at 10uM (%)

>>> readout_value("O=C(O)C(Cc1ccccc1)N1C(=O)/C(=C/c2ccccc2)SC1=S (centres unmarked)")
-0.221
>>> readout_value("O=C(NCCc1ccc(F)cc1)c1ccc2c(=O)n3c(nc2c1)CCC3")
-45.7
>>> readout_value("O=C(NCc1ccncc1)C(=O)NCC1OCCCN1S(=O)(=O)c1cc(F)ccc1F (centres unmarked)")
4.86
>>> readout_value("O=C(NCc1ccc(F)cc1)c1ccc2c(=O)n3c(nc2c1)CCCCC3")
-36.7
>>> readout_value("CCCCCn1c(CN2CCN(c3cccc(Cl)c3)CC2)nc2c1c(=O)[nH]c(=O)n2C")
-63.3
>>> readout_value("CC(=O)Nc1ccc(S(=O)(=O)Oc2ccc(C(=S)N3CCCCC3)cc2)cc1")
-16.6
>>> readout_value("CC(=O)C(c1ccccc1)C(c1ccccc1)C(C)[N+](=O)[O-] (centres unmarked)")
14.3
>>> readout_value("O=S(=O)(Cc1ccccc1)Nc1ccc(S(=O)(=O)N2CCCC2)cc1")
5.25
>>> readout_value("CC(C)c1ccc(C(O)c2cnc(C(C)C)n2C)cc1 (centres unmarked)")
-27.5
>>> readout_value("O=C(O)CC(NS(=O)(=O)c1cccc2nsnc12)c1ccc(F)cc1 (centres unmarked)")
-17.2
>>> readout_value("Cc1ccccc1NC(=O)NC1(C(=O)NCC2CCCO2)CCCCC1 (centres unmarked)")
17.5
>>> readout_value("Cc1c(C(=O)NCCc2ccccc2)oc2ccccc12")
1.98
>>> readout_value("CC(C)(C)n1nnnc1C(c1ccc(F)cc1)N1CCC(C(N)=O)CC1.Cl (centres unmarked)")
11.3
>>> readout_value("Cc1ccccc1NS(=O)(=O)c1ccc2c3c(cccc13)C(=O)N2C")
-4.02
>>> readout_value("COc1ccc(C(=O)NCCc2c[nH]c3ccccc23)cc1S(=O)(=O)N1CCOCC1")
-9.63
>>> readout_value("CCCCn1c(N2CCC(Cc3ccccc3)CC2)nc2c1c(=O)[nH]c(=O)n2C")
-49.4
>>> readout_value("O=C(Nc1ccc(Cl)c(S(=O)(=O)N2CCOCC2)c1)c1ccc2c(c1)OCCO2")
12.6
>>> readout_value("CC1(C)CC2CC(C)(CN2C(=O)COC(=O)Cn2[nH]c(=O)c3ccccc3c2=O)C1 (centres unmarked)")
2.26
>>> readout_value("NC(=S)N/N=C1/CCSc2ccc3ccccc3c21")
-23.4
>>> readout_value("COc1cc(/C=C2/C(=N)N3N=C(CC(=O)N4CCOCC4)SC3=NC2=O)ccc1OC(C)c1ccccc1 (centres unmarked)")
11.7
